- system name: His-p53 Y220C (94-294) protein (Homo sapiens, UniProt P04637, Y220C)
- Construct: His-p53 Y220C (94-294) protein
- assay notes: In vitro DNA binding assay (HTRF)
- test settings: % activation normalized to 2 μM Ref-1a high control

- compound: "COc1cc(P(C)(C)=O)ccc1NCC#Cc1sc2c(NC3[C@@H]4COC[C@H]3CN(C)C4)cccc2c1CC(F)(F)F (single isomer, unassigned) [Example 197]"
  EC50 [nM]: 26
- compound: "CN1CC[C@@H](Nc2cccc3c(CC(F)(F)F)c(C#CCNc4ccc(P(C)(C)=O)c5c4OCO5)sc23)[C@@H](F)C1"
  EC50 [nM]: 50
- compound: "COc1cc(P(C)(C)=O)ccc1NCC#Cc1sc2c(NC3CC(C)N(C)C(C)C3)cccc2c1CC(F)(F)F (stereo not shown)"
  EC50 [nM]: 106
- compound: "CNC(=O)c1ccc(NCC#Cc2sc3c(N[C@@H]4CCN(C)C[C@@H]4F)cccc3c2CC(F)(F)F)c(OC)c1"
  EC50 [nM]: 44
- compound: "COc1cc(P(C)(C)=O)ccc1NCC#Cc1sc2c(N[C@@H]3CCN(C4CC4)C[C@@H]3F)cccc2c1CC(F)(F)F (racemic)"
  EC50 [nM]: 127
- compound: "CN1CC[C@@H](Nc2cccc3c(CC(F)(F)F)c(C#CCNc4ccc(P(C)(C)=O)cc4Cl)sc23)[C@@H](F)C1 (racemic)"
  EC50 [nM]: 40
- compound: "CNC(=O)c1ccc(NCC#Cc2sc3c(N[C@H]4CCN(C)C[C@H]4F)cccc3c2CC(F)(F)F)c(OC)c1 (racemic) [Example 41]"
  EC50 [nM]: 57
- compound: "COc1cc(P(C)(C)=O)ccc1NCC#Cc1sc2c(NC3CCN(C)CC3F)cccc2c1CC#N (racemic) [Example 107]"
  EC50 [nM]: 60
- compound: "CN1CCC(Nc2cccc3c(CC(F)(F)F)c(C#CCNc4ccc(P(C)(C)=O)cc4)sc23)CC1"
  EC50 [nM]: 114
- compound: "COc1cc(P(C)(C)=O)ccc1NCC#Cc1sc2c(N[C@@H]3CCN(C4CCN(C)CC4)C[C@@H]3F)cccc2c1CC(F)(F)F (racemic)"
  EC50 [nM]: 41
- compound: "CN1CCC(Nc2cccc3c(CC(F)(F)F)c(C#CCNc4ccc(P(C)(C)=O)cc4OC(F)F)sc23)C(F)C1 (stereo not shown)"
  EC50 [nM]: 44
- compound: "CCN1CC[C@H](Nc2cccc3c(CC(F)(F)F)c(C#CCNc4ccc(P(C)(C)=O)cc4OC)sc23)[C@H](F)C1"
  EC50 [nM]: 46
- compound: "COCCNC(=O)c1cc(P(C)(C)=O)ccc1NCC#Cc1sc2c(N[C@@H]3CCN(C)C[C@@H]3Cl)cccc2c1CC(F)(F)F"
  EC50 [nM]: 45

* * *

- Test system: NUGC4 (P53 WT)
- assay notes: Cell viability assay (CellTiter-Glo, 6 days), NUGC4
- Type: cell-based
- test settings: Homo sapiens, NUGC-4, 144 h; cell viability, 6 days, CellTiter-Glo; read-out: NUGC4 (P53 WT) IC50
pIC50: −log10 of the molar value.

- molecule: "CN1CC[C@@H](Nc2cccc3c(CC(F)(F)F)c(C#CCNc4ccc(P(C)(C)=O)c5c4OCO5)sc23)[C@@H](F)C1"
  pIC50: 5.42
- molecule: "COc1cc(P(C)(C)=O)ccc1NCC#Cc1sc2c(N[C@@H]3CCN(C)C[C@@H]3Cl)cccc2c1CC(F)(F)F"
  pIC50: 5.40
- molecule: "COCCOCCNC(=O)c1ccc(NCC#Cc2sc3c(N[C@@H]4CCN(C)C[C@@H]4F)cccc3c2CC(F)(F)F)c(OC)c1 (racemic)"
  pIC50: 5.00
- molecule: "COc1cc(P(C)(C)=O)ccc1NCC#Cc1sc2c(N[C@@H]3CCN(C4CCCCOC4)C[C@@H]3F)cccc2c1CC(F)(F)F (some centres unmarked)"
  pIC50: 5.55
- molecule: "CN1CC[C@@H](Nc2cccc3c(CC(F)(F)F)c(C#CCNc4ccc(P(C)(C)=O)cc4OC(F)(F)F)sc23)[C@@H](F)C1"
  pIC50: 4.95
- molecule: "COc1cc(P(C)(C)=O)ccc1NCC#Cc1sc2c(NC3CC4(C3)CN(C)C4)cccc2c1CC(F)(F)F"
  pIC50: 5.06
- molecule: "CN1CCC(Nc2cccc3c(CC(F)(F)F)c(C#CCNc4ccc(P(C)(C)=O)cc4OC4CC4)sc23)[C@@H](F)C1 (stereo in doubt)"
  pIC50: 5.42
- molecule: "COc1cc(P(C)(C)=O)ccc1NCC#Cc1sc2c(NC3CCN(C)CC3C(F)(F)F)cccc2c1CC(F)(F)F (racemic)"
  pIC50: 5.36
- molecule: "COc1cc(P(C)(C)=O)ccc1NCC#Cc1sc2c(NC3CCN(CC4CC4)C[C@@H]3F)cccc2c1CC(F)(F)F (mixture of isomers)"
  pIC50: 5.72
- molecule: "CCN1CC[C@H](Nc2cccc3c(CC(F)(F)F)c(C#CCNc4ccc(P(C)(C)=O)cc4OC)sc23)[C@H](F)C1"
  pIC50: 5.31
- molecule: "CN1CC[C@@H](Nc2cccc3c(CC(F)(F)F)c(C#CCNc4ccc(P(C)(C)=O)c5c4OCCO5)sc23)[C@@H](F)C1"
  pIC50: 4.73

* * *

- system name: His-p53 Y220C (94-294) protein (Homo sapiens, UniProt P04637, Y220C)
- Construct: His-p53 Y220C (94-294) protein
- assay notes: In vitro DNA binding assay (HTRF)
- test settings: % activation normalized to 2 μM Ref-1a high control
recorded endpoint: log10 EC50 (log10 of the value in nM)

- molecule: "COc1cc(P(C)(C)=O)ccc1NCC#Cc1sc2c(N[C@@H]3CCN(C(C)C)C[C@@H]3F)cccc2c1CC(F)(F)F (racemic)"
  recorded endpoint: "log10 EC50"
  assay value: 1.57
- molecule: "COc1cc(N2CCOCC2=O)ccc1NCC#Cc1sc2c(NC3CCN(C)CC3F)cccc2c1CC(F)(F)F (centres unmarked)"
  recorded endpoint: "log10 EC50"
  assay value: 1.53
- molecule: "COCCN1CC[C@@H](Nc2cccc3c(CC(F)(F)F)c(C#CCNc4ccc(P(C)(C)=O)cc4OC)sc23)[C@@H](F)C1 (racemic)"
  recorded endpoint: "log10 EC50"
  assay value: 2.61
- molecule: "CN1CC[C@@H](Nc2cccc3c(CC(F)(F)F)c(C#CCNc4ccc(P(C)(C)=O)nc4C#N)sc23)[C@@H](F)C1"
  recorded endpoint: "log10 EC50"
  assay value: 1.94
- molecule: "COc1cc(S(C)(=O)=O)ccc1NCC#Cc1sc2c(N[C@H]3CC[C@H](N4CC5(COC5)C4)CC3)cccc2c1CC(F)(F)F"
  recorded endpoint: "log10 EC50"
  assay value: 1.86
